Documented IC50 across a set of molecules
tested on: M. tuberculosis H37Rv growth inhibition with meropenem; experiment: dose response, H37Rv, with and without meropenem (AID 434987);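 also: growth over 7 days at 37 °C before Alamar Blue read on day 9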; details: M. tuberculosis H37Rv growth inhibition; measured here: IC50 without meropenem
Give just the numeric value; µM need not be written.

# count of solved cases: 4
{"Molecule": "O=C(COC(=O)C1=COCCO1)Nc1ccc2c(c1)OCO2", "IC50 (µM)": 50}
{"Molecule": "COc1ccc(OC)c(-c2cc(C(=O)Nc3c(C)n(C)n(-c4ccccc4)c3=O)no2)c1", "IC50 (µM)": 54}
{"Molecule": "C/C(=N\\NC(=O)c1cc(Br)ccc1O)c1ccccn1", "IC50 (µM)": 94.9}
{"Molecule": "N/C(=N\\c1nc2ccccc2o1)NC(=O)c1ccccc1Br", "IC50 (µM)": 28.4}

Tell me measured IC50 for CC(C)(C)c1ccc(OCc2ccc(C(=O)N/N=C3\CC4CC=CC34)cc2)cc1 (configuration not stated) please.
31.2

Tell me measured IC50 for CCO[C@H]1OC(C(=O)NCc2nc3ccccc3[nH]2)=C[C@@H](c2cn(C(C)=O)c3ccccc23)[C@@H]1CCCO please.
80

Tell me measured IC50 for O=C(OCC(=O)N1CCc2ccccc21)c1ccc(Cl)nc1 please.
44

Tell me measured IC50 for Cc1ccc(-c2[nH][nH]c(=O)c(=O)c2N=Nc2ccccc2)cc1 please.
51.7

Tell me measured IC50 for O=C(CN1C(=O)c2cccc([N+](=O)[O-])c2C1=O)N1CCN(c2ccc(F)cc2)CC1 please.
91.4

Tell me measured IC50 for Cc1ccc(Nc2nc(N)nc(CC#N)n2)cc1 please.
75.6

* * *

system: M. tuberculosis H37Rv growth inhibition with meropenem; assay: dose response, H37Rv, with and without meropenem (AID 434987);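 also: growth over 7 days at 37 °C before Alamar Blue read on day 9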; settings: M. tuberculosis H37Rv growth inhibition; measured here: IC50 without meropenem
Documented IC50 across a set of compounds

# count of solved cases: 5
{"Compound": "CC1CC2(CCCCC2)Nc2ccc3ccccc3c21 (stereo unspecified)", "IC50": "86.1 µM"}
{"Compound": "CC1CC1C(=O)Nc1nc(-c2cccs2)c(-c2cccs2)s1 (stereo unspecified)", "IC50": "> 100 µM"}
{"Compound": "COCCNC(C(=O)Nc1ccc(C)cc1[N+](=O)[O-])c1ccccc1 (stereo unspecified)", "IC50": "49.1 µM"}
{"Compound": "O=C(N/N=C/c1ccc(OC(=O)c2ccc3c(c2)OCO3)cc1)c1cncc(Br)c1", "IC50": "45.7 µM"}
{"Compound": "O=C(CSC1CS(=O)(=O)c2cc([N+](=O)[O-])ccc21)NNC(=O)c1ccccc1 (stereo unspecified)", "IC50": "89 µM"}

Now, please, on to the next compound.
Tell me measured IC50 for O=C(NCc1ccc2c(c1)OCO2)Nc1ccc2ccccc2c1 please.
> 100 µM

* * *

test system: M. tuberculosis H37Rv growth inhibition with meropenem; assay: dose response, H37Rv, with and without meropenem (AID 434987);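 also: growth over 7 days at 37 °C before Alamar Blue read on day 9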; settings: M. tuberculosis H37Rv growth inhibition; measured here: IC50 without meropenem
Endpoint Label: IC50

# count of solved cases: 5
{"Smiles Record": "COc1ccc(-c2csc(-c3cccs3)n2)c(OC)c1", "IC50": "68.2 µM"}
{"Smiles Record": "O=C(/C=C/c1cc(Br)ccc1F)OCC(=O)N1CCCC1", "IC50": "> 100 µM"}
{"Smiles Record": "Cc1ccc(SCCNC(=O)c2ccc(C)c([N+](=O)[O-])c2)cc1", "IC50": "> 100 µM"}
{"Smiles Record": "Cc1ccc(CC(=O)Nc2nc3ccccc3[nH]2)cc1C", "IC50": "> 100 µM"}
{"Smiles Record": "CCOC(=O)N1CCN(C(=O)CSc2nnc(-c3ccccc3OC)o2)CC1", "IC50": "30 µM"}

Now, please, on to the next compound.
Find the measured IC50 of Cc1cc(C2C(=O)c3ccccc3C2=O)c(C)c(C)c1C with M. tuberculosis H37Rv growth inhibition with meropenem as test system.
34 µM
